target.of.assay: intracellular phosphorylation of EGFR (Tyr1068) in PC-9 cells (Ex19Del) (Homo sapiens, UniProt P00533, DEL746-750)
Sequence (P00533 with tags, fused parts or gaps DEL746-750): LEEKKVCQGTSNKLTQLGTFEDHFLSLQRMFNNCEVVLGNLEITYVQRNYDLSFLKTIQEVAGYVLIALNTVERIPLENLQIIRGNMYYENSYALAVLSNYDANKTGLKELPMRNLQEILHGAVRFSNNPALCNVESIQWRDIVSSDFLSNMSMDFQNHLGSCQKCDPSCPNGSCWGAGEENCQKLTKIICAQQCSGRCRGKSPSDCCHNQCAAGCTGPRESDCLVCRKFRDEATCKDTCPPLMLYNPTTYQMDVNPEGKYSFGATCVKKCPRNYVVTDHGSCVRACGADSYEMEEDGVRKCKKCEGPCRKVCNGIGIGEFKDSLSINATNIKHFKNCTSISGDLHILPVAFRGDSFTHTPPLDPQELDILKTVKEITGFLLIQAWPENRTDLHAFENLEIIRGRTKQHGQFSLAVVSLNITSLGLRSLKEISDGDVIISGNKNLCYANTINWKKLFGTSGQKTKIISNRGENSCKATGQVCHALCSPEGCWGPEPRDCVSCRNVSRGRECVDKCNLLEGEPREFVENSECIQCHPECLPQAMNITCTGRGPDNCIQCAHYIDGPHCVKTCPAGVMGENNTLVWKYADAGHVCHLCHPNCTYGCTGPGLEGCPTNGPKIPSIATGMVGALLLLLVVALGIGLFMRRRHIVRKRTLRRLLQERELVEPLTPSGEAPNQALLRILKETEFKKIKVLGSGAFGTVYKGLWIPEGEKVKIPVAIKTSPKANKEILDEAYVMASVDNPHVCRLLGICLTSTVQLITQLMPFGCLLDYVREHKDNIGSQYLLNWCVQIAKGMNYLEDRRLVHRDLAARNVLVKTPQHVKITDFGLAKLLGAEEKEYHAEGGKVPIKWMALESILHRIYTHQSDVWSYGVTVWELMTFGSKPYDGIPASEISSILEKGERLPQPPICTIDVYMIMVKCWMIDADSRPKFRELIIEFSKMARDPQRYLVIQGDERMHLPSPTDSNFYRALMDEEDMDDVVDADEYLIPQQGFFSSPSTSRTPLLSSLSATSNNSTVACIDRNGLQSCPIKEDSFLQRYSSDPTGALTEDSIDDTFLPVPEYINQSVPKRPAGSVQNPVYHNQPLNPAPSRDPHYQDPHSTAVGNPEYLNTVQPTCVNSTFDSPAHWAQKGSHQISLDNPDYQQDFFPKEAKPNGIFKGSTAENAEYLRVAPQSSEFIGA
protocol.details: PC-9 pEGFR AlphaLISA assay
experimental.parameters: 4 hours compound incubation, read-out: Ext pEGFR_PC-9 Ex19Del IC50
pIC50: −log10 of the molar value.
property: pIC50

C[C@@H](Oc1cc(-c2cnn(C)c2)cc2ncnc(Nc3ccc4ncccc4c3F)c12)[C@@H]1COCCN1 (single isomer, unassigned) [Example 123] = ≥ 8.00
Cc1ccc2cc(Nc3ncnc4cc(-c5cnn(C)c5)cc(O[C@H](C)CN(C)C)c34)ccc2n1 = 7.30 to 8.00
C[C@H](CN(C)C)Oc1cc(N2CCOC[C@@H]2CO)cc2ncnc(Nc3ccc4ncccc4c3F)c12 = 7.30 to 8.00
C[C@H](CN(C)C)Oc1cc(-c2cnn(C)c2)cc2ncnc(Nc3ccc4ncccc4c3F)c12 (single isomer, unassigned) [Example 5] = ≥ 8.00
C[C@H](CN(C)C)Oc1cc(-c2cnn(C)c2)cc2ncnc(Nc3ccc4ncccc4c3F)c12 [Example 6] = ≥ 8.00
CC[C@H](CN(C)C)Oc1cc(-c2cnn(C)c2)cc2ncnc(Nc3ccc4ncccc4c3F)c12 = ≥ 8.00
C[C@H](CN(C)C)Oc1cc(N2CC3CC(C2)N3)cc2ncnc(Nc3ccc4ncccc4c3F)c12 = < 7.30
C[C@@H](Oc1cc(-c2cnn(C)c2)cc2ncnc(Nc3ccc4ncccc4c3F)c12)[C@@H]1COCCN1C (single isomer, unassigned) [Example 126] = ≥ 8.00

Report pIC50, nothing else, for this compound: CO[C@H]1CCN(c2cc3ncnc(Nc4ccc5ncccc5c4F)c3c(OC(C)CN(C)C)n2)C1 (stereo in doubt)
7.30 to 8.00

Report pIC50, nothing else, for this compound: COC1CCN(c2cc(O[C@H](C)CN(C)C)c3c(Nc4ccc5ncccc5c4F)ncnc3c2)C1 (mixture of isomers)
≥ 8.00

Report pIC50, nothing else, for this compound: `C[C@H](CN(C)C)Oc1cc(N2CC3(COC3)C2)cc2ncnc(Nc3ccc4ncccc4c3F)c12`
≥ 8.00

Report pIC50, nothing else, for this compound: `C[C@H](CN(C)C)Oc1cc(-c2cnn(C)c2)cc2ncnc(Nc3cc(O)c4ncccc4c3F)c12`
≥ 8.00

Report pIC50, nothing else, for this compound: CO[C@@H]1CCN(c2cc(O[C@H](C)C3COC3)c3c(Nc4ccc5ncccc5c4F)ncnc3c2)C1 (single isomer, unassigned) [Example 85a]
≥ 8.00

Report pIC50, nothing else, for this compound: C[C@H](CN(C)C)Oc1cc(N2CCO[C@@H](C(F)F)C2)cc2ncnc(Nc3ccc4ncccc4c3F)c12 (single isomer, unassigned) [Example 99a]
≥ 8.00

Report pIC50, nothing else, for this compound: CC(CN(C)C)Oc1cc(N2CC3CC(C2)O3)cc2ncnc(Nc3ccc4ncccc4c3)c12 (single isomer, unassigned) [Example 67]
7.30 to 8.00

* * *

Examples of compounds with documented IC50 follow.
target.of.assay: intracellular phosphorylation of EGFR (Tyr1068) in PC-9 cells (Ex19Del) (Homo sapiens, UniProt P00533, DEL746-750)
protocol.details: PC-9 pEGFR AlphaLISA assay
experimental.parameters: 4 hours compound incubation, read-out: Ext pEGFR_PC-9 Ex19Del IC50

Consider the reported IC50 for these compounds:
C[C@H](CN(C)C)Oc1cc(N2CCOCC2)cc2ncnc(Nc3ccc4ncccc4c3F)c12 = ≤ 10 nM
COc1cc(O[C@H](C)C2COC2)c2c(Nc3ccc4ncccc4c3F)ncnc2c1 = ≤ 10 nM
C[C@H](CN(C)C)Oc1cc(-c2cnn(C)c2)cc2ncnc(Nc3ccc4ncc(F)cc4c3F)c12 = 10.1 to 50 nM
CO[C@@H]1CCN(c2cc(O[C@H](C)CN(C)C)c3c(Nc4ccc5ncccc5c4F)ncnc3c2)C1 (single isomer, unassigned) [Example 87a] = ≤ 10 nM
[2H]c1c(-c2cc(O[C@H](C)CN(C)C)c3c(Nc4ccc5ncccc5c4F)ncnc3c2)cnn1C = ≤ 10 nM
C[C@@H](Oc1cc(N2CC[C@@H](C(C)(C)O)C2)cc2ncnc(Nc3ccc4ncccc4c3F)c12)C1COC1 = ≤ 10 nM
C[C@H](CN(C)C)Oc1nc(N2CC[C@H](C(C)(C)O)C2)cc2ncnc(Nc3ccc4ncccc4c3F)c12 = 10.1 to 50 nM

In the following, a different compound is considered.
Report IC50, nothing else, for this compound: C[C@H](CN(C)C)Oc1cc(-c2cnn(C)c2)cc2ncnc(Nc3ccc4ncccc4c3)c12 (single isomer, unassigned)
> 50.1 nM
